Kindly supply the reported PBM E-score values for the records listed here.
- tested.system: Yer184c (UniProt P39961)
- Sequence: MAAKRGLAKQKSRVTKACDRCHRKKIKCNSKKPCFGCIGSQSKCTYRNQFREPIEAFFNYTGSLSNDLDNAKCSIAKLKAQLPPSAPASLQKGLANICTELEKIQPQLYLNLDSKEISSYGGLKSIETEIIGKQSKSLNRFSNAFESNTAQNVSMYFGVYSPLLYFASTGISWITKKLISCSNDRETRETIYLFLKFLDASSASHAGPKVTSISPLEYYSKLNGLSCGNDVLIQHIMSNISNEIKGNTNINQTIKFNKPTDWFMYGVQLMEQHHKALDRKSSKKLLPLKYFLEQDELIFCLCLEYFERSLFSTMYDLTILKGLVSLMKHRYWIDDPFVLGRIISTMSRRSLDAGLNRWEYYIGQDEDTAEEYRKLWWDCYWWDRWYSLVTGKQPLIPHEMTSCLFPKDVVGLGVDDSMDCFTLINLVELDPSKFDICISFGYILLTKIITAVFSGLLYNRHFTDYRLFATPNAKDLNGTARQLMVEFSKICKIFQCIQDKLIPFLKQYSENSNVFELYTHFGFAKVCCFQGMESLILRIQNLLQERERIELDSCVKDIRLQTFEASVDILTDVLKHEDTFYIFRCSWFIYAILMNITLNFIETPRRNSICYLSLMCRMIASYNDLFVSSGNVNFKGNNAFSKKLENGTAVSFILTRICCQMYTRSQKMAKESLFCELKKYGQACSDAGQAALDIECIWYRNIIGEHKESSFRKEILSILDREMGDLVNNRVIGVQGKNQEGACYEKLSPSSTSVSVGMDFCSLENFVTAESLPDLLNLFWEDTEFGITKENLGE
- assay.name: PBM E-score (8-mer binding enrichment) (E-score (-0.5 to 0.5)); higher = stronger / more preferred TF binding
- stated.conditions: protein concentration: 100 nM; construct: GST-full length
Over roughly 33,000 sequences, “E-score (-0.5 to 0.5)” has its median near -0.016; the highest 2% begin near 0.3. Only a selection was taken, and the highest values are over-represented in it overall.
// no unit string in output, number only

Recorded PBM E-score for `CTCGGCCA` , please? 0.204

I am curious: what PBM E-score value has been reported for `GACGGCAA` ? 0.148

Look at this sequence and give its reported PBM E-score. `GCGCAAGA` 0.188

What does the record list as PBM E-score for `GATTGGGA` ? -0.133

Please report the recorded PBM E-score for `CACGGCAA` . 0.199

Quick one: PBM E-score of `CCCTTTGA` ? -0.266

If you can, please state the reported PBM E-score value of `AAGATACC` . 0.187

PBM E-score lookup needed for `TTCGGCAA` , thanks. 0.336

Which PBM E-score is reported for this sequence? `GTCGGCAC` 0.1

# get_value(readout='PBM E-score', item= `CTCGGCAC` ) 0.31

Please report the recorded PBM E-score for `ATCGGCAA` . 0.246

Fill blank: measured PBM E-score of the sequence `TCGGACAA` is ____. 0.378

So what's the measured PBM E-score for this one? `ACGGACAA` 0.27
